metric_name: IC50

-- ask Enter reported IC50 observed with E. coli dihydrofolate reductase (DHFR) (Escherichia coli) for COc1cc2c(Nc3ccc(Br)cc3F)ncnc2cc1OCC1CCN(C)CC1
Sequence (P0ABQ4 whole entry): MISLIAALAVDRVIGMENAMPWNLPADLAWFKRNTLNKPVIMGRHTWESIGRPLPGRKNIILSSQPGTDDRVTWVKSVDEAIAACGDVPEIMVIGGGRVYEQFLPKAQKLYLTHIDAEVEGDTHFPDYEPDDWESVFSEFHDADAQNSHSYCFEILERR
-- reply ~39 µM
